# reported MIC; entries follow
- Tested on: Citrobacter freundii
- METHOD_NOTES: Antibacterial activity against Citrobacter freundii 8090 after 18 hrs
- Type: functional
- EXPERIMENTAL_PARAMETERS: Citrobacter freundii, 8090, 18 h

- SMILES_TEXT: "Oc1cc(Cl)ccc1Oc1ccc(Cl)cc1Cl"
  MIC (µg/mL): 0.5
- SMILES_TEXT: "OC[C@H]1O[C@H](Oc2cc(Cl)ccc2Oc2ccc(Cl)cc2Cl)[C@H](O)[C@@H](O)[C@H]1O"
  MIC (µg/mL): 64
- SMILES_TEXT: "O[C@@H]1[C@@H](Oc2cc(Cl)ccc2Oc2ccc(Cl)cc2Cl)OC[C@@H](O)[C@H]1O"
  MIC (µg/mL): 8
- SMILES_TEXT: "OC[C@H]1O[C@H](Oc2cc(Cl)ccc2Oc2ccc(Cl)cc2Cl)[C@H](O)[C@@H](O)[C@@H]1O"
  MIC (µg/mL): 4
- SMILES_TEXT: "OC[C@H]1O[C@@H](Oc2cc(Cl)ccc2Oc2ccc(Cl)cc2Cl)[C@H](O)[C@@H](O)[C@@H]1O"
  MIC (µg/mL): 64
- SMILES_TEXT: "O[C@@H]1[C@H](Oc2cc(Cl)ccc2Oc2ccc(Cl)cc2Cl)OC[C@@H](O)[C@H]1O"
  MIC (µg/mL): 64
- SMILES_TEXT: "OC[C@H]1O[C@@H](Oc2cc(Cl)ccc2Oc2ccc(Cl)cc2Cl)[C@H](O)[C@@H](O)[C@H]1O"
  MIC (µg/mL): 8
- SMILES_TEXT: "OC[C@H]1O[C@H](Oc2cc(Cl)ccc2Oc2ccc(Cl)cc2Cl)[C@@H](O)[C@@H](O)[C@@H]1O"
  MIC (µg/mL): 64
